Source listed as patent EP3290412A1.

MEASUREMENT_TARGET: full length (1-55) HIV-1 NCp7 (Human immunodeficiency virus type 1 group M subtype B, UniProt P12493)
Construct: recombinant full length (1-55) HIV-1 NCp7 proteins; made in house
PROTOCOL_DETAILS: Electromobility Shift Assay (EMSA), competition for ssDNA binding
SETTINGS: NCp7 300 nM, M13mp18 ssDNA; positive = >25% inhibition at 100µM

STRUCTURE	EMSA screening results
C[C@@H](NC(=O)c1nc(-c2ccc(CN3CCCC3)cn2)nc(O)c1O)C1CCCCC1	Negative
Cc1cccnc1-c1nc(O)c(O)c(C(=O)NCC2CCCCC2)n1	Negative
